STUDY SYSTEM: Glutamate receptor ionotropic, NMDA 1 (Rattus norvegicus, UniProt P35439)
pKi: −log10 of the molar value.
MEASUREMENT LABEL: pKi

Would you please look over these solved cases?
N[C@H](C(=O)O)c1cccc(O)c1 [(S)-3-Hydroxyphenylglycine]: < 5.00
N[C@@H](C(=O)O)c1cccc(O)c1 [(R)-3-Hydroxyphenylglyci]: < 5.00
N[C@H](C(=O)O)c1ccc(C(=O)O)cc1: < 5.00

Shift focus to the following entry.
# query: pKi | item N[C@@H](C(=O)O)c1ccc(C(=O)O)cc1 [(S)-4CPG] | system: Glutamate receptor ionotropic, NMDA 1 (Rattus norvegicus, UniProt P35439)
< 5.00

Measured values drawn from BindingDB's records for doi:10.1016/0922-4106(94)90227-5 for this set.
